B1: library; a variant is named by its letters at N, in order (parent)
chain: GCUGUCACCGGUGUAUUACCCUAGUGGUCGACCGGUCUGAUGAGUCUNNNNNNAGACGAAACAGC

Variants of: B1
Assay: FACS-Seq fitted mean relative fluorescence mCherry/BFP with ligand (log10 relative fluorescence); ligand: hypoxanthine (xanthine aptamer); ligand concentration (+) FACS-Seq: 5 mM; higher = higher reporter protein expression
Conditions: HEK293T, ligand present: yes
measurement.type: FACS-Seq fitted mean (log10)

sequence.content: GCUGUCACCGGUGUAUUACCCUAGUGGUCGACCGGUCUGAUGAGUCUUAUUACAGACGAAACAGC [UAUUAC]
result: 0.512
//
sequence.content: GCUGUCACCGGUGUAUUACCCUAGUGGUCGACCGGUCUGAUGAGUCUUCUAGAAGACGAAACAGC [UCUAGA]
result: 0.0154
//
sequence.content: GCUGUCACCGGUGUAUUACCCUAGUGGUCGACCGGUCUGAUGAGUCUGAAUGGAGACGAAACAGC [GAAUGG]
result: 0.417

Please report FACS-Seq fitted mean (log10) for every entry that follows.
1. GCUGUCACCGGUGUAUUACCCUAGUGGUCGACCGGUCUGAUGAGUCUACGACUAGACGAAACAGC [ACGACU]
2. GCUGUCACCGGUGUAUUACCCUAGUGGUCGACCGGUCUGAUGAGUCUAAGGGGAGACGAAACAGC [AAGGGG]
3. GCUGUCACCGGUGUAUUACCCUAGUGGUCGACCGGUCUGAUGAGUCUAGGCAUAGACGAAACAGC [AGGCAU]
4. GCUGUCACCGGUGUAUUACCCUAGUGGUCGACCGGUCUGAUGAGUCUCGUAAAAGACGAAACAGC [CGUAAA]

0.447
0.386
0.027
0.491

Please report FACS-Seq fitted mean (log10) for every entry that follows.
1. GCUGUCACCGGUGUAUUACCCUAGUGGUCGACCGGUCUGAUGAGUCUCGAGCAAGACGAAACAGC [CGAGCA]
2. GCUGUCACCGGUGUAUUACCCUAGUGGUCGACCGGUCUGAUGAGUCUGCUAAGAGACGAAACAGC [GCUAAG]
3. GCUGUCACCGGUGUAUUACCCUAGUGGUCGACCGGUCUGAUGAGUCUUAGCGAAGACGAAACAGC [UAGCGA]
4. GCUGUCACCGGUGUAUUACCCUAGUGGUCGACCGGUCUGAUGAGUCUUCUGGAAGACGAAACAGC [UCUGGA]

1: 0.543; 2: 0.199; 3: 0.447; 4: 0.462

Provenance of the data: the supplement of paper PMC6757056
